- System: ACHN renal
- assay explanation: NCI tumour cell line growth inhibition, 48 h
TGI values, listed per item

compound | TGI
CNC(C)Cc1ccc(O)cc1 (configuration not stated) | > 100 µM
Cc1cc(S(=O)(=O)Nc2nc3cc(-c4ccsc4)sc3c(=O)n2N)c(S)cc1Cl | > 100 µM
O=C(Nc1cccc([N+](=O)[O-])c1)c1cc2ccccc2cc1O | 7.79 µM
COc1ccc(NS(=O)c2cccc(C)c2)cc1 (configuration not stated) | > 100 µM
CCC1OC(/C(C)=C/C(C)/C=C/C2C(C)C2/C=C/C2OC(CC(=O)O)CC(O)C2O)CC=C1C (configuration not stated) | > 50 µM
CC(C)c1nccn1Cc1ccc(Cl)cc1Cl | > 100 µM
Cc1nn(-c2ccccn2)c2c1C(SC#N)=C(C=O)CC2 | 29.8 µM
O=C(NCc1ccccc1)c1c(O)c2ccccc2[nH]c1=O | > 100 µM
COc1cccc(C2CC(=O)c3cccn32)c1 (configuration not stated) | > 100 µM
C#CCOc1cccc(Nc2ncc3ncn(C4CCN(C(=O)CCl)C4)c3n2)c1 (configuration not stated) | 46.2 µM
O=C1NC(O)CCN1C1CC(O)C(CO)O1 (configuration not stated) | > 100 µM
CC(C)N(Cc1ccccc1)S(=O)(=O)c1n[nH]c(C(C)(C)C)n1 | > 100 µM
COc1ccc(C(C)NNC(=O)c2ccncc2)cc1F (configuration not stated) | > 100 µM
CSc1ccccc1P(CCP(c1ccccc1SC)c1ccccc1SC)c1ccccc1SC | > 100 µM
CCOC(=O)CCC(C(=O)OCC)n1nnc2cc(Nc3c(C)[n+]([O-])c4ccc(Cl)cc4[n+]3[O-])ccc21 (configuration not stated) | > 100 µM
COc1cc2c3c(c1OC)Oc1ccc(cc1)CC1c4c(cc(OC)c(OC)c4Oc4ccc(cc4)CC3N(C)CC2)CCN1C (configuration not stated) | > 100 µM
[N-]=[N+]=Nc1c(Br)c(=O)[nH]c(=O)n1COCCO | > 100 µM
COc1cc(/C=C\c2cc(OC)c(OC)c(OC)c2)cc(NS(=O)(=O)c2cccc(Cl)c2)c1OC | > 100 µM
C[n+]1c(-c2ccc(/C=N/Nc3ccnc(N/N=C/c4ccc(-c5cn6ccccc6[n+]5C)cc4)n3)cc2)cn2ccccc21 | 54.4 µM
O=C(O)c1cc2c(c3ccsc13)-c1ccccc1CC2 | > 100 µM
O=C(O)c1oc2cccc3c2c1CCC3 | > 100 µM
CN(C)CCNc1c2c(c(NCCN(C)C)c3c(CO)c[nH]c13)C(=O)c1ccccc1C2=O | 9.96 µM

Taken from PubChem BioAssay (NCI).
